B1: FUNDC2 (parent)
chain: YIKVDWQRVEKDMKKAKEQLKIRK

- Variants of: B1
- TEST_PROTOCOL: protein stability index of a GFP-peptide fusion (GPS, HEK-293T) (PSI 1-6); higher = more stable;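 further: lentivirally expressed fusions sorted by FACS into six bins by GFP to DsRed ratio, PSI derived from sequencing read proportions per bin multiplied by bin number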
- APPLIED_CONDITIONS: c terminus: a fixed tail appended
Values of protein stability index greater than or equal to 2 map to Satisfied; values below map to Not satisfied.

Worked examples follow.
MUTANT_NAME | ASSIGNED_CATEGORY
A16K | Not satisfied
K3H | Not satisfied
V4Y | Satisfied

Ask: hey, is protein stability index for this one >= 2? V4H
Reply: Satisfied

Ask: hey, is protein stability index for this one >= 2? D12G
Reply: Satisfied

Ask: hey, is protein stability index for this one >= 2? Q19I
Reply: Not satisfied

Ask: hey, is protein stability index for this one >= 2? D5Q
Reply: Not satisfied

Ask: hey, is protein stability index for this one >= 2? Q7D
Reply: Not satisfied

Taken from the supplement of paper PMC10567573.
